test system: Plasmodium falciparum strain Dd2; experiment: in vitro anti-malarial activity, [3H]hypoxanthine incorporation, strain Dd2; format: cell-based; conditions: P. falciparum strain Dd2, intraerythrocytic stages; read-out: IC50 (μM) Dd2
value.kind: IC50

Problem: Need IC50, item CC(=O)N(O)CCCP(=O)(O)O [FR900098, reference compound]
Result: 0.18 µM

====

test system: Plasmodium falciparum strain 3D7; experiment: in vitro anti-malarial activity, [3H]hypoxanthine incorporation, strain 3D7; assay type: cell-based; conditions: P. falciparum strain 3D7, intraerythrocytic stages
value.kind: IC50
Answer format: number, then unit.

Problem: Fill in: IC50 of CC(=O)N(O)CCCP(=O)(O)O [FR900098, reference compound] is ___
Result: 0.32 µM
